- assayComment: cells
- Type: functional
- experimentalConditions: Homo sapiens, Cancer cell lines
- Description: Growth inhibition of human CNS cancer cells at 10 uM relative to control
observable: inhibition at 10 µM (%)
Provide the reading as a plain figure in %.

Task item: Which inhibition at 10 µM value belongs to O=C(/C=C/c1cn(CCc2ccccc2)nn1)NO ?
Reply: 58

Task item: Which inhibition at 10 µM value belongs to O=C(/C=C/c1cn(CC(=O)Nc2ccccc2)nn1)NO ?
Reply: 89

Task item: Which inhibition at 10 µM value belongs to O=C(/C=C/c1cn(CC(=O)c2ccccc2)nn1)NO ?
Reply: 67

Task item: Which inhibition at 10 µM value belongs to O=C(/C=C/c1cn(C/C=C/c2ccccc2)nn1)NO ?
Reply: -18

====

observable: IC50 (µM)
Provide the reading as a plain figure in µM.

Task item: Requested read-out IC50, target or system Histone deacetylase 1 (Homo sapiens), entry O=C(/C=C/c1cn(C/C=C/c2ccccc2)nn1)NO
Reply: 0.104

====

- Test system: SF-539
- assayComment: Growth inhibition of human SF539 cells at 10 uM relative to control
- Format: functional
- experimentalConditions: values are per cent of control
Could you please report measured growth, % of control at 10 µM for the items listed next?
Number first, unit second.

Task item: Which growth, % of control at 10 µM value belongs to O=C(/C=C/c1cn(CC(=O)Nc2ccccc2)nn1)NO ?
Reply: 107%

Task item: Which growth, % of control at 10 µM value belongs to O=C(/C=C/c1cn(CCc2ccccc2)nn1)NO ?
Reply: 72.8%

Task item: Which growth, % of control at 10 µM value belongs to O=C(/C=C/c1cn(C/C=C/c2ccccc2)nn1)NO ?
Reply: 5.16%

Task item: Which growth, % of control at 10 µM value belongs to O=C(/C=C/c1cn(CC(=O)c2ccccc2)nn1)NO ?
Reply: 86.4%

Task item: Which growth, % of control at 10 µM value belongs to O=C(NO)c1cn(C/C=C/c2ccccc2)nn1 ?
Reply: 135%

Task item: Which growth, % of control at 10 µM value belongs to O=C(Cn1cc(C(=O)NO)nn1)c1ccccc1 ?
Reply: 118%

====

Could you please report measured growth, % of control at 10 µM for the items listed next?
- Test system: BT-549
- assayComment: Growth inhibition of human BT549 cells at 10 uM relative to control
- Type: functional
- experimentalConditions: values are per cent of control
Provide the reading as a plain figure in %.

Task item: Requested read-out growth, % of control at 10 µM, target or system BT-549, entry O=C(/C=C/c1cn(CCc2ccccc2)nn1)NO
Reply: 78

Task item: Requested read-out growth, % of control at 10 µM, target or system BT-549, entry O=C(/C=C/c1cn(CC(=O)c2ccccc2)nn1)NO
Reply: 72.1

Task item: Requested read-out growth, % of control at 10 µM, target or system BT-549, entry O=C(/C=C/c1cn(CC(=O)Nc2ccccc2)nn1)NO
Reply: 83.6

Task item: Requested read-out growth, % of control at 10 µM, target or system BT-549, entry O=C(Cn1cc(C(=O)NO)nn1)c1ccccc1
Reply: 108

Task item: Requested read-out growth, % of control at 10 µM, target or system BT-549, entry O=C(/C=C/c1cn(C/C=C/c2ccccc2)nn1)NO
Reply: 43.3

Task item: Requested read-out growth, % of control at 10 µM, target or system BT-549, entry O=C(NO)c1cn(C/C=C/c2ccccc2)nn1
Reply: 107

====

- System: HCT-15
- assayComment: Growth inhibition of human HCT15 cells at 10 uM relative to control
- Type: functional
- experimentalConditions: values are per cent of control
observable: growth, % of control at 10 µM (%)
Provide the reading as a plain figure in %.

Task item: Requested read-out growth, % of control at 10 µM, target or system HCT-15, entry O=C(Cn1cc(C(=O)NO)nn1)c1ccccc1
Reply: 108

Task item: Requested read-out growth, % of control at 10 µM, target or system HCT-15, entry O=C(/C=C/c1cn(C/C=C/c2ccccc2)nn1)NO
Reply: 9.7

Task item: Requested read-out growth, % of control at 10 µM, target or system HCT-15, entry O=C(NO)c1cn(C/C=C/c2ccccc2)nn1
Reply: 98.8

Task item: Requested read-out growth, % of control at 10 µM, target or system HCT-15, entry O=C(/C=C/c1cn(CCc2ccccc2)nn1)NO
Reply: 75.8

Task item: Requested read-out growth, % of control at 10 µM, target or system HCT-15, entry O=C(/C=C/c1cn(CC(=O)c2ccccc2)nn1)NO
Reply: 117

Task item: Requested read-out growth, % of control at 10 µM, target or system HCT-15, entry O=C(/C=C/c1cn(CC(=O)Nc2ccccc2)nn1)NO
Reply: 105

====

- assayComment: cells
- Assay type: functional
- experimentalConditions: Homo sapiens, Cancer cell lines
- Description: Growth inhibition of human renal cancer cells at 10 uM relative to control
observable: growth percent at 10 µM (%)
Provide the reading as a plain figure in %.

Task item: Which growth percent at 10 µM value belongs to O=C(/C=C/c1cn(C/C=C/c2ccccc2)nn1)NO ?
Reply: -20

Task item: Which growth percent at 10 µM value belongs to O=C(/C=C/c1cn(CC(=O)c2ccccc2)nn1)NO ?
Reply: 65

Task item: Which growth percent at 10 µM value belongs to O=C(/C=C/c1cn(CCc2ccccc2)nn1)NO ?
Reply: 46

Task item: Which growth percent at 10 µM value belongs to O=C(/C=C/c1cn(CC(=O)Nc2ccccc2)nn1)NO ?
Reply: 90

====

Could you please report measured growth, % of control at 10 µM for the items listed next?
- Tested on: KM12
- assayComment: Growth inhibition of human KM12 cells at 10 uM relative to control
- Type: functional
- experimentalConditions: values are per cent of control
Provide the reading as a plain figure in %.

Task item: Which growth, % of control at 10 µM value belongs to O=C(/C=C/c1cn(CCc2ccccc2)nn1)NO ?
Reply: 67.8

Task item: Which growth, % of control at 10 µM value belongs to O=C(/C=C/c1cn(CC(=O)Nc2ccccc2)nn1)NO ?
Reply: 76

Task item: Which growth, % of control at 10 µM value belongs to O=C(Cn1cc(C(=O)NO)nn1)c1ccccc1 ?
Reply: 108

Task item: Which growth, % of control at 10 µM value belongs to O=C(/C=C/c1cn(CC(=O)c2ccccc2)nn1)NO ?
Reply: 78

Task item: Which growth, % of control at 10 µM value belongs to O=C(NO)c1cn(C/C=C/c2ccccc2)nn1 ?
Reply: 104

Task item: Which growth, % of control at 10 µM value belongs to O=C(/C=C/c1cn(C/C=C/c2ccccc2)nn1)NO ?
Reply: 8.61

====

Could you please report measured growth, % of control at 10 µM for the items listed next?
- System: IGROV-1
- assayComment: Growth inhibition of human IGROV1 cells at 10 uM relative to control
- Assay type: functional
- experimentalConditions: values are per cent of control
Provide the reading as a plain figure in %.

Task item: Requested read-out growth, % of control at 10 µM, target or system IGROV-1, entry O=C(/C=C/c1cn(C/C=C/c2ccccc2)nn1)NO
Reply: -13.8

Task item: Requested read-out growth, % of control at 10 µM, target or system IGROV-1, entry O=C(NO)c1cn(C/C=C/c2ccccc2)nn1
Reply: 89.4

Task item: Requested read-out growth, % of control at 10 µM, target or system IGROV-1, entry O=C(Cn1cc(C(=O)NO)nn1)c1ccccc1
Reply: 100

Task item: Requested read-out growth, % of control at 10 µM, target or system IGROV-1, entry O=C(/C=C/c1cn(CCc2ccccc2)nn1)NO
Reply: 44.6

Task item: Requested read-out growth, % of control at 10 µM, target or system IGROV-1, entry O=C(/C=C/c1cn(CC(=O)c2ccccc2)nn1)NO
Reply: 64.2

Task item: Requested read-out growth, % of control at 10 µM, target or system IGROV-1, entry O=C(/C=C/c1cn(CC(=O)Nc2ccccc2)nn1)NO
Reply: 86.4

====

Could you please report measured growth, % of control at 10 µM for the items listed next?
- System: A498
- assayComment: Growth inhibition of human A498 cells at 10 uM relative to control
- Assay type: functional
- experimentalConditions: values are per cent of control
Provide the reading as a plain figure in %.

Task item: Which growth, % of control at 10 µM value belongs to O=C(/C=C/c1cn(CCc2ccccc2)nn1)NO ?
Reply: 52.4

Task item: Which growth, % of control at 10 µM value belongs to O=C(Cn1cc(C(=O)NO)nn1)c1ccccc1 ?
Reply: 67.6

Task item: Which growth, % of control at 10 µM value belongs to O=C(/C=C/c1cn(C/C=C/c2ccccc2)nn1)NO ?
Reply: -74.4

Task item: Which growth, % of control at 10 µM value belongs to O=C(NO)c1cn(C/C=C/c2ccccc2)nn1 ?
Reply: 95.2

Task item: Which growth, % of control at 10 µM value belongs to O=C(/C=C/c1cn(CC(=O)Nc2ccccc2)nn1)NO ?
Reply: 105
